target or system: FXa (Homo sapiens, UniProt P00742)
Sequence (P00742 235-488 limits assumed): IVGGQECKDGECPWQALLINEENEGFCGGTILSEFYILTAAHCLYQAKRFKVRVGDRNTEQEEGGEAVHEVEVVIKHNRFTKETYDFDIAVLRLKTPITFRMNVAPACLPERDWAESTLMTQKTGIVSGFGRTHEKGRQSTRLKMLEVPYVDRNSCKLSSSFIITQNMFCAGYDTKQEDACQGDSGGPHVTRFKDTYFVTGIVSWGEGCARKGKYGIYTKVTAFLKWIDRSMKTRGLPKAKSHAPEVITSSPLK
Sequence (P00742 41-179 partner limits assumed): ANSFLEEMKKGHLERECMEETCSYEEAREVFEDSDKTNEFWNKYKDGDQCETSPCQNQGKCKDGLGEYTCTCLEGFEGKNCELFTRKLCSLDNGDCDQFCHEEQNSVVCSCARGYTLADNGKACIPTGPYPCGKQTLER
value type: IC50

QUERY: Using the record for CN1CCc2ccc(N3CCc4c(C(=O)NCc5ccccc5)nn(-c5cccc(Cl)c5)c4C3=O)cc2C1 [Example 1005] , report its IC50.
RESULT: 3 to 10 µM

QUERY: Param item: O=C(NCC1CC1)c1nn(-c2cccc(Cl)c2)c2c1CCN(c1ccc3c(c1)CN(C(=O)CO)CC3)C2=O [Example 1114]
RESULT: > 40 µM

QUERY: Next entry: CCNC(=O)c1nn(-c2cccc(Cl)c2)c2c1CCN(c1cccc(N3CCCS3(=O)=O)c1)C2=O [Example 1366]
RESULT: 10 to 40 µM

QUERY: // query: CCN1CCOc2ccc(N3CCc4c(C(=O)NCc5cnccc5C)nn(-c5cccc(Cl)c5)c4C3=O)cc2C1=O [Example 1318]
RESULT: 3 to 10 µM

QUERY: # iterate: Cc1cccnc1CNC(=O)c1nn(-c2cccc(Cl)c2)c2c1CCN(c1ccc3c(c1)C(=O)N(C)CC3)C2=O [Example 1308]
RESULT: > 40 µM

QUERY: Similarly, Cc1cc(CNC(=O)c2nn(-c3cccc(Cl)c3)c3c2CCN(c2ccc4c(c2)C(=O)N(CC2CCOC2)CC4)C3=O)nn1C (stereo not shown) [Example 1258] ?
RESULT: > 40 µM

QUERY: Repeat for the following compound: CN1CCc2ccc(N3CCc4c(C(=O)NC(C(=O)O)c5cccnc5)nn(-c5cccc(Cl)c5)c4C3=O)cc2C1=O (stereo not shown) [Example 1328]
RESULT: 3 to 10 µM
